Each item that follows carries a reported pIC50.
target: human Werner helicase (WRN, amino acids 517-1235 with L1074F point mutation) (Homo sapiens (Human), UniProt Q14191, L1074F); assay: WRN (BV08) ADP-Glo assay; settings: human WRN (aa 517-1235, L1074F), read-out: ADP-Glo_hWRN_IC50
Sequence (Q14191 other isoform, or with tags, fused parts or gaps L1074F (already in the parent)): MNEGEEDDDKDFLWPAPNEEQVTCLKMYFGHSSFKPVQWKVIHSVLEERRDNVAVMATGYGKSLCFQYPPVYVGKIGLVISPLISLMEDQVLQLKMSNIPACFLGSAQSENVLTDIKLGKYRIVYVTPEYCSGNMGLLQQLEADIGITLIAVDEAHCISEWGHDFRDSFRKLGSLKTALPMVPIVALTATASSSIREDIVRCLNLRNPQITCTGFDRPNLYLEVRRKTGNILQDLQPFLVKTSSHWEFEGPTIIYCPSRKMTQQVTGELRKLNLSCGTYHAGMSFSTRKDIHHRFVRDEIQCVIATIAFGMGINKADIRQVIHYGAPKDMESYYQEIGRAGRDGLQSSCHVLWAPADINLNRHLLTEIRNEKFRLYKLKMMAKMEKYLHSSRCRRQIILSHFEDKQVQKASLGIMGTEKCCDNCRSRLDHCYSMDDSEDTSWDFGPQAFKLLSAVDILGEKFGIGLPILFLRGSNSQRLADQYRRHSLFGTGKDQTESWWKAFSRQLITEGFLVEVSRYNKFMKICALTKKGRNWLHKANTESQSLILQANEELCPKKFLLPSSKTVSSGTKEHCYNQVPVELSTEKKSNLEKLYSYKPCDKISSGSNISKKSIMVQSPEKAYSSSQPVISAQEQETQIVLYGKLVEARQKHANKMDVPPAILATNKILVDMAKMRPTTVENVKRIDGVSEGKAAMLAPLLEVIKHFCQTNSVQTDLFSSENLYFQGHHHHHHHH
pIC50: −log10 of the molar value.

>  <Compound>
CCc1c(N2CCN(C(=O)c3ncnc(C)c3O)C3CCC[C@H]32)c(=O)c2nn(-c3ccnc(OC)c3)nc2n1CC(=O)NC12CC(C(C)C)(C1)C2 (stereo in doubt) [Compound I-76]

>  <pIC50>
7.30 to 8.30

$$$$

Turning now to a further compound:
query: Requested field: pIC50. Item: CCc1c(N2CCN(C(=O)c3c(OC)ncc(C)c3O)[C@H]3CC[C@@H]32)c(=O)c2nn(C3=CCOCC3)nc2n1CC(=O)NC12CC(C(C)C)(C1)C2 [Compound I-24]
result: 7.30 to 8.30

* * *

Entries and their pIC50 values follow.
target: human Werner helicase (WRN, amino acids 517-1235 with L1074F point mutation) (Homo sapiens (Human), UniProt Q14191, L1074F); experiment: WRN (BV08) ADP-Glo assay; details: human WRN (aa 517-1235, L1074F), read-out: ADP-Glo_hWRN_IC50
pIC50: −log10 of the molar value.

>  <Compound>
CCc1c(N2CCN(C(=O)c3ncnc(C)c3O)[C@H]3CC[C@@H]32)c(=O)c2nn(-c3ccnc(OC)c3)nc2n1CC(=O)NC12CC(C(F)(F)F)(C1)C2 [Compound I-54]

>  <pIC50>
7.30 to 8.30

$$$$
>  <Compound>
CCc1c(N2CCN(C(=O)c3c(OC)ncc(C)c3O)CC2)c(=O)c2nn(-c3ccnc(OC)c3)nc2n1CC(=O)NC12CC(C(C)(F)F)(C1)C2

>  <pIC50>
7.30 to 8.30

$$$$
>  <Compound>
CCc1c(N2CCN(C(=O)c3c(OC)ncc(C(F)F)c3O)CC2)c(=O)c2nn(-c3ccnc(OC)c3)nc2n1CC(=O)NC12CC(C(C)C)(C1)C2

>  <pIC50>
7.30 to 8.30

$$$$
>  <Compound>
CCc1c(N2CCN(C(=O)c3ncnc(C)c3O)[C@H]3CC[C@@H]32)c(=O)c2nn([C@@H]3CC3(F)F)nc2n1CC(=O)Nc1ccc(C(F)(F)F)cc1Cl (single isomer, unassigned)

>  <pIC50>
≥ 8.30

$$$$
>  <Compound>
CCc1c(N2CCN(C(=O)c3ncnc(C)c3O)[C@H]3CC[C@@H]32)c(=O)c2nn(C3=CCOCC3)nc2n1CC(=O)NC12CC(C3CC3)(C1)C2 [Compound I-26]

>  <pIC50>
7.30 to 8.30

$$$$

query: Please give the measured pIC50 for this compound: `CCc1c(N2CCN(C(=O)c3cnccc3OC)[C@H]3CC[C@@H]32)c(=O)c2nn(C3=CCOCC3)nc2n1CC(=O)NC12CC(C(C)C)(C1)C2`
result: 7.30 to 8.30

query: Follow-up entry: CCc1c(N2CCN(C(=O)c3ncnc(C)c3O)[C@H]3CC[C@@H]32)c(=O)c2nn(C3=CCOCC3)nc2n1CC(=O)NC12CC(C(C)C)(C1)C2 [Compound I-18]
result: 7.30 to 8.30
